Hey, just so you know, these numbers are from patent US20160052936A1.

Biological target: human GnRH receptor (Homo sapiens)
Sequence (P30968 whole entry): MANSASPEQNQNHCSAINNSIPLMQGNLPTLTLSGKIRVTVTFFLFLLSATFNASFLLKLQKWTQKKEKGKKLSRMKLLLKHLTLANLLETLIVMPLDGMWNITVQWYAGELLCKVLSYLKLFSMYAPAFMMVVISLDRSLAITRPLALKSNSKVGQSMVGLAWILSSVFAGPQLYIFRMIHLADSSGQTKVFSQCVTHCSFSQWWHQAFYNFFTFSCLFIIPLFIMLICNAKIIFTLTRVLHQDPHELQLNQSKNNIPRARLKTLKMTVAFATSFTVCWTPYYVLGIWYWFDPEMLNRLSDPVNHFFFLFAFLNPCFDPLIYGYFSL
Experiment: IP-One HTRF assay with buserelin stimulation
Conditions: CHO cells stably expressing human GnRH receptor; buserelin at EC80; read-out: Potency in IP-One HTRF assay with buserelin (at EC80) stimulation, given as IC50
Measure: IC50 (µM)
Report the figure in µM without appending any unit label.

Please give the measured IC50 for this molecule: N#Cc1cccc(S(=O)(=O)N2c3ccc(C(=O)NCc4ncc(C(F)(F)F)cc4Cl)cc3C3(CCS(=O)(=O)CC3)C2C2CC2)c1 (racemic) [Example 10]
0.029

Also N#Cc1ccc(S(=O)(=O)N2c3ccc(C(=O)NCc4ncc(C(F)(F)F)cc4Cl)cc3C3(CCS(=O)(=O)CC3)[C@H]2C2CC2)cc1 (single isomer, unassigned) [Example 8.2] ?
3.56

And then O=C(NCc1ncc(C(F)(F)F)cc1F)c1ccc2c(c1)C1(CCS(=O)(=O)CC1)C(C1CC1)N2S(=O)(=O)c1ccc(Cl)cc1 (racemic) [Example 18] , what is it?
0.065
